Ref: patent US20220281819A1

- target.or.test.system: TEAD2 (Homo sapiens, UniProt Q15562)
- Sequence (Q15562 whole entry, species assumed): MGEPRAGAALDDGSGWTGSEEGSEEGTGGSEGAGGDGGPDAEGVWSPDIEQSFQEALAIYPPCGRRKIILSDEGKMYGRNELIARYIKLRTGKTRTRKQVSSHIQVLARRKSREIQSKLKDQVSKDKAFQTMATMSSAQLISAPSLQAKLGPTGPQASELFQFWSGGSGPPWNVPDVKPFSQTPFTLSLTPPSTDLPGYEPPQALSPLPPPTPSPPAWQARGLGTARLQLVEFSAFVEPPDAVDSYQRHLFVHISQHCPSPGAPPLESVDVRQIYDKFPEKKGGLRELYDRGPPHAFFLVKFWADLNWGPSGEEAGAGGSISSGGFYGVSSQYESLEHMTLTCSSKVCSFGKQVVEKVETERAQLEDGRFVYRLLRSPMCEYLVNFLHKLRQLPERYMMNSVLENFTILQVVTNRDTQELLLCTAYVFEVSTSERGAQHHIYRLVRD
- test: Lipid HTRF (TR-FRET lipid pocket probe competition), 30 min pre-incubation, TEAD2
- Format: binding
- test.parameters: His-tagged TEAD2, 30 minutes pre-incubation with compound at room temperature; read-out: Lipid HTRF TEAD2 IC50
endpoint.label: IC50 (nM)

>>> observed_result("C=CC(=O)Nc1cnc2cccc(O[C@H]3CC[C@H](C(F)(F)F)CC3)c2c1")
70
>>> observed_result("C=CC(=O)Nc1cc(/C=C/[C@H]2CC[C@H](C(F)(F)F)CC2)c(OC)nc1OC")
150
>>> observed_result("COc1cnc(NC(=O)/C=C/C#N)cc1/C=C/[C@H]1CC[C@H](C(F)(F)F)CC1")
50
>>> observed_result("C=CC(=O)Nc1cc(/C=C/[C@H]2CC[C@H](C(F)(F)F)CC2)c(OC)nc1CO")
10
>>> observed_result("C=CC(=O)Nc1cc2c(c(-c3ccc(C(C)C)cc3)c1)OCC2")
370
>>> observed_result("C=CC(=O)Nc1cc(/C=C/C2CCC(F)(F)CC2)c(C#N)cn1")
40
>>> observed_result("C=CC(=O)Nc1cnc(OC)c(/C=C/C2CCC(F)(F)CC2)c1")
260
>>> observed_result("C=CC(=O)Nc1cc(/C=C/C2CCC(F)(F)CC2)c2c(c1)CC(C)O2 (single isomer, unassigned) [Enantiomer C from Example 35]")
2200
>>> observed_result("C=CC(=O)Nc1cnc(OC)c(COC2CC3(CC3)C2)c1")
1750
>>> observed_result("C=CC(=O)Nc1cnc(OC)c(/C=C/C2CC(F)(F)C2)c1")
2550
>>> observed_result("C=CC(=O)Nc1cc(/C=C/C2CCC(F)(F)CC2)c(OC)cn1")
230
>>> observed_result("C=CC(=O)Nc1cc(/C=C/C2CCC(F)(F)CC2)c2c(c1)CC(C)O2 (single isomer, unassigned) [Enantiomer D from Example 35]")
3500
>>> observed_result("C=CC(=O)Nc1ccc(OC)c(/C=C/C2CCC(F)(F)CC2)c1")
410
